assay: Preliminary single dose i.p. pharmacokinetics of NS2 and NS2-SSA adduct formation in wild type mice; assay type: in vivo, wild type C57B16 mice; settings: both sexes, C57B16 (wild type), mouse, serum, ip; wild type mice, single dose 10 mg/kg i.p.; by 24 hours
Result Type: concentration at 24 h

get_value(item= CC(C)(O)c1nc2ccc(Cl)cc2cc1N , readout=concentration at 24 h) returns < 50 nM
